# system-name: RORc ligand binding domain (Homo sapiens)
# Construct: host or cells: E. coli
# Sequence (P51449 269-508 limits assumed): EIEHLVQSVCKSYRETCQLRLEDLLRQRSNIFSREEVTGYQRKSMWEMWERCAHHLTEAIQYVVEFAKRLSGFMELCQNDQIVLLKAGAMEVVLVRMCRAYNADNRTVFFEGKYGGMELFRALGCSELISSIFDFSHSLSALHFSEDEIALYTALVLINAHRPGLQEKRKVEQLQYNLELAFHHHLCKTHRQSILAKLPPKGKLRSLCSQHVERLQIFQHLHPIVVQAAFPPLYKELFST
# protocol-summary: In Vitro RORc Ligand Binding Assay (25-[3H]hydroxycholesterol radioligand filtration)
# measurement-setup: In Vitro RORc Ligand Binding Assay; Table 4; read-out: RORc IC50
quantity: IC50

1) C[C@H]1CCC(c2ccccc2)S(=O)(=O)N1Cc1ccc(C(=O)N2CCN(S(C)(=O)=O)CC2)cc1 (some centres unmarked)
203 nM
2) C[C@H]1CCC(c2ccccc2)S(=O)(=O)N1Cc1ccc(N2CCC(C(=O)O)CC2)cc1F (some centres unmarked)
102 nM
3) C[C@H]1CCC(c2ccccc2)S(=O)(=O)N1Cc1ccc(N[C@H]2CC[C@@H](C#N)CC2)cc1F (single isomer, unassigned) [Example 97]
40 nM
4) CC(=O)N1CCN(c2ccc(CN3[C@@H](C)CCC(c4ccccc4)S3(=O)=O)cc2C#N)CC1 (single isomer, unassigned) [Example 114]
201 nM
5) CC(=O)N1CCN(c2ccc(CN3CCC(C)CC(c4ccccc4)S3(=O)=O)c(F)c2)CC1 (single isomer, unassigned) [Example 332]
71 nM
6) CCOC(=O)N1CCC(NC(=O)c2ccc(CN3[C@@H](C)CCC(c4ccccc4)S3(=O)=O)cc2)CC1 (some centres unmarked)
4440 nM
7) COc1cc(CN2[C@@H](C)CCC(c3ccccc3)S2(=O)=O)ccc1N1CCN(C(C)=O)CC1 (single isomer, unassigned) [Example 161]
3080 nM
8) C[C@H]1CCC(c2ccccc2)S(=O)(=O)N1Cc1ccc(N2CCn3cnnc3C2)cc1F (single isomer, unassigned) [Example 148]
1600 nM
9) CC(=O)N1CCN(c2ccc(CN3C(C)(C)CCC(c4ccccc4)S3(=O)=O)c(F)c2)CC1 (single isomer, unassigned) [Example 13]
142 nM
10) C[C@H]1CCC(c2ccccc2)S(=O)(=O)N1Cc1ccc(N2CC3(CCOC3)C2)cc1F (single isomer, unassigned) [Example 94]
54 nM
11) C[C@H]1CCC(c2ccccc2)S(=O)(=O)N1Cc1ccc(N[C@H]2CC[C@H](n3cnnc3)CC2)cc1F (some centres unmarked)
275 nM
12) CC(=O)N1CCN(c2ccc(CN3C[C@@H](C)CC(c4ccccc4)S3(=O)=O)c(F)c2)CC1 (single isomer, unassigned) [Example 197]
356 nM
13) C[C@@H]1CCC(c2ccccc2)S(=O)(=O)N1Cc1ccc(OC2CCN(S(C)(=O)=O)CC2)cc1 (some centres unmarked)
20 nM
14) C[C@H]1CCC(c2ccccc2)S(=O)(=O)N1Cc1ccc(NC2CCC(C#N)CC2)cc1F (some centres unmarked)
18 nM
15) CC(=O)N1CCN(c2ccc(CN3[C@H](C)COCC(c4ccccc4)S3(=O)=O)c(F)c2)CC1 (single isomer, unassigned) [Example 27]
188 nM
16) C[C@H]1CCC(c2ccccc2)S(=O)(=O)N1Cc1ccc(C(=O)N2CCOC(C(N)=O)C2)cc1 (some centres unmarked)
4720 nM
17) C[C@H]1CCC(c2ccccc2)S(=O)(=O)N1Cc1ccc(C(=O)N2CCCOCC2)cc1 (some centres unmarked)
5060 nM
18) C[C@H]1CCC(c2ccccc2)S(=O)(=O)N1Cc1ccc(C(=O)N2CC3COCC3C2)cc1 (some centres unmarked)
2920 nM
19) C[C@H]1CCC(c2ccccc2)S(=O)(=O)N1Cc1ccc(C(=O)N2CCC[C@@H]2CO)cc1 (some centres unmarked)
911 nM
20) C[C@H]1CCC(c2ccccc2)S(=O)(=O)N1Cc1ccc(N2CCC(CS(C)(=O)=O)CC2)cc1F (single isomer, unassigned) [Example 104]
54 nM
21) CO[C@@H](C)C(=O)N1CCCN(c2ccc(CN3[C@@H](C)CCC(c4ccccc4)S3(=O)=O)c(F)c2)CC1 (single isomer, unassigned) [Example 92]
154 nM
22) C[C@H]1CCC(c2ccccc2)S(=O)(=O)N1Cc1ccc(N2CCN(C3=CC(=O)CC3)CC2)cc1F (some centres unmarked)
89 nM
23) CC(=O)N1CCN(c2ccc(CN3CC(C)CC(c4ccccc4)S3(=O)=O)c(F)c2)CC1 (single isomer, unassigned) [Example 68]
403 nM
24) C[C@H]1CCC(c2ccccc2)S(=O)(=O)N1Cc1ccc(N2CCC(n3ncnn3)CC2)cc1F (single isomer, unassigned)
24 nM
25) CC(=O)N1CCN(c2ccc(CN3CC4(COC4)CC(c4ccccc4)S3(=O)=O)c(F)c2)CC1 (single isomer, unassigned) [Example 266]
4330 nM
26) O=C(CO)N1CCN(c2ccc(CN3CCCCC(c4ccccc4)S3(=O)=O)cc2)CC1 (single isomer, unassigned) [Example 316]
173 nM
